Target: D(4) dopamine receptor (Homo sapiens)
Sequence (P21917 whole entry): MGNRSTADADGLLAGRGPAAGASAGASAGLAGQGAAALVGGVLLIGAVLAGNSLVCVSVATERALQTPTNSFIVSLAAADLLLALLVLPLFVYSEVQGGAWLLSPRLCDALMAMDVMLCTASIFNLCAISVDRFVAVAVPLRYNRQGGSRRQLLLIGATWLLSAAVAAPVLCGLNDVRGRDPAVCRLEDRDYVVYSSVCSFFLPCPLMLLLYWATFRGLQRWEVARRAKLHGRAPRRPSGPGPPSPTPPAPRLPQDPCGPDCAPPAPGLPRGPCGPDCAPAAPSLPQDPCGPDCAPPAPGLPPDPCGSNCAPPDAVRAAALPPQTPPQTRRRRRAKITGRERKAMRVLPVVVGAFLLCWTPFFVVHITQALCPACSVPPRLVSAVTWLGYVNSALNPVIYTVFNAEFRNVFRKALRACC
Assay: Binding affinity to human D4R assessed as inhibition constant
RECORDED_METRIC: pKi
Entry type: numeric. Quantity: pKi, the -log10 of concentration in molar units.

Look up pKi: `CCOC(=O)N1CCN(Cc2cnn(-c3ccc(Cl)cc3)c2)CC1`
6.59

====

target: UniProt P35462; assay: Binding affinity to human D3R assessed as inhibition constant
Sequence (P35462 whole entry): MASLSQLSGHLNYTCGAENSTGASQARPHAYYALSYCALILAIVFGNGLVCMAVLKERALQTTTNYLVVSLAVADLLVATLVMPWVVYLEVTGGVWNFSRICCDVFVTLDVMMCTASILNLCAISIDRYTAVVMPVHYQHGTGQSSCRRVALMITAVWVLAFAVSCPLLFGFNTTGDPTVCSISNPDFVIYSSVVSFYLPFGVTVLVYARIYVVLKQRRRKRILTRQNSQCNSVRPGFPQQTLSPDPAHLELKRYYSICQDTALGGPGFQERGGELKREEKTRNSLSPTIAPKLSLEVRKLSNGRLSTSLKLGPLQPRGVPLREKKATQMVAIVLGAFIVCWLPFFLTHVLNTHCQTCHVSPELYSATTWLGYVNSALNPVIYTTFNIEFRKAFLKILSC
RECORDED_METRIC: Ki (µM)
Use µM as the unit, but write only the number.

Ki for `CCOC(=O)c1[nH]c2ccc(F)cc2c1CN1CCN(c2ccccc2)CC1` ?
15

Would you mind telling me what Ki value was observed for `N#Cc1[nH]c2ccccc2c1CN1CCN(c2ccccc2)CC1` ?
2.5

Item `OCc1[nH]c2ccccc2c1CN1CCN(c2ccccc2)CC1` has what recorded Ki?
3.3

# Ki lookup, item `O/N=C/c1c(CN2CCN(c3ccccc3)CC2)[nH]c2ccccc12`
3.7

====

biological target: D(4) dopamine receptor (Homo sapiens); test: Displacement of [3H]-spiperone from human D4 receptor expressed in CHO-K1 cells assessed as inhibition constant measured after 60 mins; type: cell-based
RECORDED_METRIC: Ki (nM)
Give the quantity in nM, number only.

So what's the measured Ki for this one? `Clc1ccc2c(c1)N=C(N1CCN(c3ccccc3)CC1)CCN2`
31

====

target: D(4) dopamine receptor (Homo sapiens); experiment: Agonist activity at human D4R assessed as [35S] GTPgammaS binding
RECORDED_METRIC: EC50 (nM)
Give the number; nM is assumed, so skip it.

Could you tell me which EC50 is on file for `COc1ccccc1N1CCN(Cc2ccc3cccccc2-3)CC1` ?
3.7

====

molecular target: D(4) dopamine receptor (Homo sapiens, UniProt P21917); assay: Displacement of [3H]-methylspiperone from D4 (unknown origin) receptor expressed in HEK293T cells assessed as inhibition constant; assay type: cell-based
RECORDED_METRIC: pKi
Scale: pKi equals -log10([C]), with [C] in mol/L.

What value of pKi has been reported for the following compound? `CC(C)N1C[C@H](NC(=O)N2Cc3ccccc3[C@@H]2C)[C@@H](C)C1`
8.37

====

target: D(2) dopamine receptor (Homo sapiens, UniProt P14416); assay: Displacement of [3H]-spiperone from human D2 receptor assessed as inhibition constant
Sequence (P14416 whole entry): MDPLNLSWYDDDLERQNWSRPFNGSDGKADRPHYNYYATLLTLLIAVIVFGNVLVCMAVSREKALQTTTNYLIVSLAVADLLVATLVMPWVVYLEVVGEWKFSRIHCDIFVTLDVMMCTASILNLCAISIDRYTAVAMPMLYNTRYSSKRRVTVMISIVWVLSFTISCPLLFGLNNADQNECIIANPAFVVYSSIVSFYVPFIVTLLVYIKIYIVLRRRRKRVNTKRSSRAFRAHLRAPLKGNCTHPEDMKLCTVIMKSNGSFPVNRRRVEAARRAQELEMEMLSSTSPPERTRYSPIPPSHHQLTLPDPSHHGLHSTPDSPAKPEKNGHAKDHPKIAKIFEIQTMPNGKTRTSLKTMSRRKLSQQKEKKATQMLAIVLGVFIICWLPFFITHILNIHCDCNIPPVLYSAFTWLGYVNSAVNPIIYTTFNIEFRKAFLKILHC
RECORDED_METRIC: Ki (µM)
Provide the reading as a plain figure in µM.

What value of Ki has been reported for the following compound? `Clc1ccc2c(c1)N=C(N1CCN(c3ccccc3)CC1)CCN2`
4.7

Origin of the recorded values: ChEMBL document CHEMBL5233263
